System: Plasmodium falciparum
Assay: GSK_TCMDC: Inhibition of Plasmodium falciparum Dd2 in whole red blood cells, using parasite LDH activity as an index of growth. Test compounds present at 2uM
Assay type: functional
experimental_readout: Inhibition (%)
State just the number; it will be interpreted in %.

CCOc1c(CNCCCNc2cc(=O)c3ccccc3[nH]2)cc(I)cc1C(C)(C)C.Cl : 89
Cc1cc(F)ccc1-c1nc(N(C)CCN(C)C(=O)N(C)c2ccccc2)nc2c1ccc(=O)n2-c1c(F)cccc1F.O=C(O)C(F)(F)F : 77

Now turn to the next molecule.
Annotate the molecule CC(C)(C)Cn1cc(-c2ccc(C(=O)NCCc3ccc(S(C)(=O)=O)cc3)cc2)c(N)n1.CC(C)(C)Cn1ncc(-c2ccc(C(=O)NCCc3ccc(S(C)(=O)=O)cc3)cc2)c1N.O=C(O)C(F)(F)F with its measured Inhibition.
10

###

Test system: Plasmodium falciparum
Experiment: GSK_TCMDC: Inhibition of Plasmodium falciparum Dd2 in whole red blood cells, using parasite LDH activity as an index of growth. Test compounds present at 2uM
Type: functional
Recorded Inhibition by entry
Write down the numeric answer in % and omit the unit.

Completed entries (count: 3):
CC(C)(CN)c1nc(-c2ccc(Br)c(O)c2)c(-c2ccncc2)[nH]1.Cl : 97
CCc1c[nH]c2c(N3CCCC3=O)cc(C(=O)N[C@@H](Cc3ccccc3)[C@H](O)CNC(C)(C)c3cccc(C(F)(F)F)c3)cc12.O=CO : 99
COc1cc2c(Nc3cccc(NC(=O)c4ccccc4)c3)ncnc2cc1OCCCN1CCOCC1 : 100

Please examine the following record next.
Supply reported Inhibition belonging to this compound: CC(=O)Nc1cccc(CNCc2ccc(-c3cnc(N4CCCC(c5ccccc5)C4)nc3)cc2)c1.O=CO (centres undefined)
22

###

System: HepG2
Assay: GSK_TCMDC: Percent inhibition of human HepG2 cell line. Test compounds present at 10uM.
Assay type: functional
experimental_readout: Inhibition (%)
Please give a number only; it is taken to be in %.

Please review the entries below; each comes with its answer.
CCOc1cc[nH]c(=O)n1 : 0
COc1ccc(C)c(Nc2ccnc(Nc3cccc(-c4nc5ccccc5[nH]4)c3)n2)c1.Cl : 27
O=C(Nc1cccc(-c2ccc(-c3nc4ccccc4[nH]3)cc2)c1)c1cnn2cccnc12 : 9
O=S(=O)(Nc1ccc(CCN2CCCCC2CCN2CCCC2)cc1)c1ccc(-c2ccccc2)cc1 (stereo not given) : 18

Note down Inhibition recorded for COc1cccc(-c2ccc(O)c(CNCCc3cccc(F)c3)c2)n1
0

Look up Inhibition of COc1ccc2nc3cc(Cl)ccc3c(Nc3ccc(O)c(CNC(C)C)c3)c2c1 and report it.
5

# return recorded Inhibition for entry O=C(Nc1cccc(F)c1)NC1CCN(c2ccnc3cc(Cl)ccc23)CC1.O=C(O)C(F)(F)F
11

Report Inhibition for Cc1ccoc1C(=O)Nc1ccc(-c2cccc(-c3nc4cccc(C)c4[nH]3)c2)cc1
15

Supply recorded Inhibition for CCOc1ccc2c(=NN=Cc3ccc(OC)c(OC)c3)cc(C)[nH]c2c1 here.
22

Respond only with Inhibition recorded for O=C(/C=C/c1ccc(Cl)c(Cl)c1)NCCCCCN1CCC(c2n[nH]c(-c3ccccc3)c2Br)CC1
100

###

System: Plasmodium falciparum
Experiment: GSK_TCMDC: Inhibition of Plasmodium falciparum 3D7 in whole red blood cells, using parasite LDH activity as an index of growth. Test compounds present at 2uM
Assay type: functional
experimental_readout: Inhibition (%)
Express your answer in %, writing the number without its unit.

Here is how some compounds turned out for Inhibition.
O=C(NC1CCCCC1)N(Cc1cccc(-c2ccc(CNCc3ccc4c(c3)OCO4)cc2)c1)C1CCN(Cc2ccccc2)CC1.O=C(O)C(F)(F)F : 92
COc1cc2nc(N3CCC(CNCc4ccc(-c5ccc(C(F)(F)F)cc5)cc4)CC3)nc(N)c2cc1OC : 99
CN1CCCC(CN2CCN(Cc3ccc(-c4cccc(-c5nc6ccccc6[nH]5)c4)cc3)CC2)C1.O=C(O)C(F)(F)F (stereo not drawn) : 100
CCCNc1nc(NCc2c(C)cccc2C)nc(NC(C)(C)C)n1 : 91

Okay, next one:
For the compound COc1ccc2nc(-c3cc(-c4ccc(NC(=O)CN5CCOCC5)cc4)cnc3N)[nH]c2c1 , give its reported Inhibition.
100
